test system: E. coli 716; assay: Antibiotic resistance profile of clinical isolate (Table S1); assay type: cell-based, Escherichia coli; settings: Table S1, E. coli 716
readout: Interpretation

Worked cases, answers included:
# compound, obs-value
records = [
    ("C[C@@H](O)[C@H]1C(=O)N2C(C(=O)O)=C(S[C@@H]3CN[C@H](C(=O)Nc4cccc(C(=O)O)c4)C3)[C@H](C)[C@H]12", "R"),
    ("CO[C@@]1(NC(=O)C(C(=O)O)c2ccsc2)C(=O)N2[C@@H](C(=O)O)C(C)(C)S[C@@H]21 (stereo partly shown)", "R"),
    ("NC[C@H]1O[C@H](O[C@H]2[C@H](O)[C@@H](O[C@H]3O[C@H](CO)[C@@H](O)[C@H](N)[C@H]3O)[C@H](N)C[C@@H]2N)[C@H](N)C[C@@H]1O", "S"),
    ("NCC[C@H](O)C(=O)N[C@@H]1C[C@H](N)[C@@H](O[C@H]2O[C@H](CN)[C@@H](O)[C@H](O)[C@H]2O)[C@H](O)[C@H]1O[C@H]1O[C@H](CO)[C@@H](O)[C@H](N)[C@H]1O", "S"),
    ("CC(C)(O/N=C(\\C(=O)N[C@@H]1C(=O)N2C(C(=O)[O-])=C(C[n+]3ccccc3)CS[C@H]12)c1csc(N)n1)C(=O)O", "R"),
]

INPUT: // returns reported Interpretation for input CO/N=C(\C(=O)N[C@@H]1C(=O)N2C(C(=O)O)=C(CSc3nc(=O)c(=O)[nH]n3C)CS[C@H]12)c1csc(N)n1
OUTPUT: R

INPUT: // returns reported Interpretation for input C[C@@H](O)[C@H]1C(=O)N2C(C(=O)O)=C(SCCN=CN)C[C@H]12
OUTPUT: R

---

Test system: E. coli 1441
Experiment: Antibiotic resistance profile of clinical isolate (Table S1)
Format: cell-based, Escherichia coli
Conditions: Table S1, E. coli 1441
Procedure: Each strain was grown in Mueller Hinton Broth (MH Broth), and 5 × 10^5 CFU/mL was used to evaluate antibacterial activity. Clinical carbapenem-resistant K. pneumoniae and E. coli isolates were collected at the AOU of Virology and Microbiology of the University of Campania “Luigi Vanvitelli”. […] Table S1. Antibiotic resistance profile of K. pneumoniae and E. coli clinical isolates . MIC: Minimum Inhibitory Concentration was expressed in µg/mL; S: Sensible; I: Intermediate; R: Resistant. […]
readout: Interpretation

# compound, readout, obs-value
measured = [
    ("CNC(C)C1CCC(N)C(OC2C(N)CC(N)C(OC3OCC(C)(O)C(NC)C3O)C2O)O1 (stereo not shown)", "Interpretation", "S"),
    ("C[C@@H](O)[C@H]1C(=O)N2C(C(=O)O)=C(S[C@@H]3CN[C@H](C(=O)Nc4cccc(C(=O)O)c4)C3)[C@H](C)[C@H]12", "Interpretation", "R"),
    ("CO[C@@]1(NC(=O)C(C(=O)O)c2ccsc2)C(=O)N2[C@@H](C(=O)O)C(C)(C)S[C@@H]21 (stereo partly shown)", "Interpretation", "S"),
    ("C[C@@H](O)[C@H]1C(=O)N2C(C(=O)O)=C(SCCN=CN)C[C@H]12", "Interpretation", "I"),
]

---

What MIC was measured for each of the following?
test system: E. coli 2267; assay: Antibiotic resistance profile of clinical isolate (Table S1); format: cell-based, Escherichia coli; conditions: Escherichia coli; Table S1, E. coli 2267; read-out: MIC

INPUT: Give MIC (E. coli 2267) of the following compound: CC(C)(O/N=C(\C(=O)N[C@@H]1C(=O)N2C(C(=O)[O-])=C(C[n+]3ccccc3)CS[C@H]12)c1csc(N)n1)C(=O)O [Ceftazidime]
OUTPUT: > 16 µg/mL

INPUT: Give MIC (E. coli 2267) of the following compound: C[C@@H](O)[C@H]1C(=O)N2C(C(=O)O)=C(SCCN=CN)C[C@H]12 [Imipenem]
OUTPUT: > 8 µg/mL

INPUT: Give MIC (E. coli 2267) of the following compound: NCC[C@H](O)C(=O)N[C@@H]1C[C@H](N)[C@@H](O[C@H]2O[C@H](CN)[C@@H](O)[C@H](O)[C@H]2O)[C@H](O)[C@H]1O[C@H]1O[C@H](CO)[C@@H](O)[C@H](N)[C@H]1O [Amikacin]
OUTPUT: ≤ 4 µg/mL

INPUT: Give MIC (E. coli 2267) of the following compound: CO/N=C(\C(=O)N[C@@H]1C(=O)N2C(C(=O)O)=C(COC(N)=O)CS[C@H]12)c1ccco1 [Cefuroxime]
OUTPUT: > 8 µg/mL

INPUT: Give MIC (E. coli 2267) of the following compound: C[C@H]1COc2c(N3CCN(C)CC3)c(F)cc3c(=O)c(C(=O)O)cn1c23 [Levofloxacin]
OUTPUT: > 1 µg/mL
